# Test system: HCC 2998
# test-protocol: NCI tumour cell line growth inhibition, 48 h
The source made the active and inactive calls. Cut-off read from the data, not from the text of the source: active = GI50 up to about 1.1 µM and inactive = higher.
Use one of these outcomes when replying: true = active, false = inactive

Worked examples, 2 compounds total:
compound: NC(=O)c1cccc(OCC(O)CO)c1 (centres undefined)
cat: false
//
compound: COc1ccc2c(c1OC)C(=O)N/C2=C\c1c(CCN(C)C)cc2c(c1OC)OCO2
cat: false

# lookup: test call for CC(c1ccccc1)N1CCN(C(C)c2ccccc2)CC1 (centres undefined) false

Recorded call for COC(=O)/C=C/C1C2C3(CCC(C)C12C)OCCS3 (centres undefined) ? false

Which outcome was entered for the compound O=c1c(-c2ccccc2)c(O)nc2[nH]c3ccccc3n12 in this test? false

Hi, do you know how O=C1CSC(=S)N1/N=C/c1ccc(Cl)c([N+](=O)[O-])c1 came out in this test? false

What did this assay record as the result for COc1ccc(NC2=NCCO2)c2c1CCCC2 ? false

Recorded test outcome, item Cc1ccc(NC(=O)CC(=O)N2N=C(N(c3ccccc3)c3ccccc3)CC2c2ccccc2)cc1 (centres undefined) false

Assay outcome for CC(C)(C)c1ccc2c(c1)C(O)(c1ccccc1)c1cc(C(C)(C)C)ccc1C2(O)C(F)(F)F (centres undefined) : what was it? false

Assay outcome for COc1cc(/N=N\c2cccc(S(=O)(=O)O)c2)ccc1/N=N\c1ccc(/C=C/c2ccc(-n3on3-c3ccc(/C=C/c4ccc(/N=N/c5ccc(/N=N\c6cccc(S(=O)(=O)O)c6)cc5OC)cc4S(=O)(=O)O)c(S(=O)(=O)O)c3)cc2S(=O)(=O)O)c(S(=O)(=O)O)c1 : what was it? false

Record request — test call for O=[N+]([O-])c1cccnc1S(=O)(=O)c1ccccc1 false

---

# Test system: HOP-62
# test-protocol: NCI tumour cell line growth inhibition, 48 h
Activity calls are given as the source filed them. Rule as the data show it: active = GI50 up to about 1.1 µM and inactive = higher. Where a SMILES comes first, the peptide text is derived from it. The star is where a group is joined. Boc = CC(C)(C)OC(=O)*; tBu = CC(C)(C)*
endpoint: GI50

Sample answers from the record:
compound: COc1cc2c(cc1OC)C(C(=O)c1cccc(OC)c1OC)C(=O)N(C)CC2 (stereo not given)
system-under-test: HOP-62
result: > 100 µM (inactive)

compound: COC(=O)/C=C/C1C2C3(CCC(C)C12C)OCCS3 (stereo not given)
system-under-test: HOP-62
result: > 100 µM (inactive)

compound: O=C(NC12CC3CC(CC(C3)C1)C2)C(=O)c1c[nH]c2ccc(Br)cc12
system-under-test: HOP-62
result: 7.06 µM (inactive)

compound: CC(OC(C)(C)C)C(NC(=O)C(N)CCCCNC(=O)OC(C)(C)C)C(=O)NC(Cc1ccccc1)C(=O)O (stereo not given) (H-Lys(Boc)-Thr(tBu)-Phe-OH; configuration not given here)
system-under-test: HOP-62
result: > 100 µM (inactive)

compound: O=[N+]([O-])C(/C(Cl)=C(/Cl)N1CCCCC1)=C1\NCCO1
system-under-test: HOP-62
result: > 100 µM (inactive)

compound: COc1cc(CCN)c(OC)c(OC)c1
system-under-test: HOP-62
result: > 100 µM (inactive)

compound: C=CCc1c(C)nc(C)nc1N/N=C/C=C/c1ccccc1
system-under-test: HOP-62
result: 16.5 µM (inactive)

compound: CN(C)C(=S)/N=c1\ss/c(=N\C(=S)N(C)C)n1-c1ccc(Cl)c(Cl)c1
system-under-test: HOP-62
result: 40.6 µM (inactive)

Given the compound CC(c1ccccc1)N1CCN(C(C)c2ccccc2)CC1 (stereo not given) , what is its reported GI50? > 100 µM (inactive)

Item under review: O=C1C=CC(=O)C(N(CCO)CCO)=C1.O=C1C=CC2(O)OCCN(CCO)C2=C1 . Reported GI50? > 100 µM (inactive)
